Data origin: ChEMBL document CHEMBL5537160

PROTOCOL DESCRIPTION: Cmax in C57BL/6 mouse brain at 10 mg/kg, iv measured after 0.25 hrs by LC-MS/MS analysis
Format: ADME, organism-based
READOUT: Cmax (ng/g)
Answers are plain numbers, in ng/g.

So for `Cl.N[C@H](C(=O)O)[C@H]1[C@H](CC(=O)O)[C@@H]1C(=O)O` , the logged Cmax turned out to be 86

* * *

Please provide measured EC50 for the entries that follow.
EXPERIMENTAL TARGET: Metabotropic glutamate receptor 3 (Rattus norvegicus)
Sequence (P31422 whole entry): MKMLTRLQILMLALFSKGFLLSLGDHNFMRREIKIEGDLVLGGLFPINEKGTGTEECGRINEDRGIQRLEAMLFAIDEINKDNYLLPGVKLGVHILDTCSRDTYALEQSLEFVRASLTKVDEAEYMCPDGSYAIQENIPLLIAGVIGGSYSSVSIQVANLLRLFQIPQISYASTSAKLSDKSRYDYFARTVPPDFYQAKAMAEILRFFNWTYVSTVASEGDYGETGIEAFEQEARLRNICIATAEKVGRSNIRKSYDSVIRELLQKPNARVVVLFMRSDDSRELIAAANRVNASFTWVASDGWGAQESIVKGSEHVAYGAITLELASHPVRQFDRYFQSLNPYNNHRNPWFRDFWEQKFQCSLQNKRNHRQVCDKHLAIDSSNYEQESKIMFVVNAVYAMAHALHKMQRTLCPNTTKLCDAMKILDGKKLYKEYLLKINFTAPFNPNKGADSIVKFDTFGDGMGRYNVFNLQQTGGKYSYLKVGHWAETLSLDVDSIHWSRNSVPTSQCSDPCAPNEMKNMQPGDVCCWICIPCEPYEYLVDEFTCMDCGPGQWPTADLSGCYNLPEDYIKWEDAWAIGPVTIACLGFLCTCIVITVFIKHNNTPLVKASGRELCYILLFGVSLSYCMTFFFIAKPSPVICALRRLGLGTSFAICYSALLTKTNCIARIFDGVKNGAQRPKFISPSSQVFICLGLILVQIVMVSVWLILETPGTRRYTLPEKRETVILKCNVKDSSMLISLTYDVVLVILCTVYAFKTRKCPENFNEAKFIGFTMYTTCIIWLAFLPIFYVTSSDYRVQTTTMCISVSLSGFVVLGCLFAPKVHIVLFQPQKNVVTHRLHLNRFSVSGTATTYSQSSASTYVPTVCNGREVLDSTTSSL
PROTOCOL DESCRIPTION: Agonist activity at SNAP tagged rat mGlu3 transfected HEK293 cells preincubated with antagonist LY-341495 followed by compound addition by TR-FRET assay
Assay type: functional, cell-based
Answers are plain numbers, in µM.

Solved entries:
• Cl.N[C@H](C(=O)O)[C@H]1[C@H](CC(=O)O)[C@@H]1C(=O)O = 11.5
• COc1cccc(C(=O)N[C@H]2C[C@@](N)(C(=O)O)[C@@H]3[C@@H](C(=O)O)[C@@H]32)c1 = 0.032

Consider the record given below.
So for `N[C@@]1(C(=O)O)CC[C@H]2[C@H](C(=O)O)[C@H]21` , the logged EC50 turned out to be 4.8
